Entries and their GI50 values follow.
Tested on: K562
assay_protocol: NCI tumour cell line growth inhibition, 48 h
Calls of active or inactive are those of the source. Cut-off read from the data, not from the text of the source: active = GI50 up to about 1.1 µM and inactive = higher.

Worked set:
INSERT INTO results (molecule, observation_type, measured) VALUES
  ('COC(=O)CCSC(=O)Nc1ccc(/N=N/c2ccccc2)cc1', 'GI50', '45.8 µM (inactive)'),
  ('COC1C(OC(=O)/C=C/C=C/C=C/C=C/C(=O)O)CCC2(CO2)C1C1(C)OC1CC=C(C)C (centres undefined)', 'GI50', '21.1 µM (inactive)'),
  ('Nn1c(S)nnc1-c1ccccc1Nc1ccccc1-c1nnc(S)n1N', 'GI50', '> 50 µM (inactive)');

Query molecule follows.
Query: Give GI50 for CN1CCCc2nc3ccccc3n2C1
Result: > 100 µM (inactive)
